target: ZFP SBS#1444 (synthetic); test: EMSA; conditions: tags: MBP fusion
Sequence (chain, as listed by the source): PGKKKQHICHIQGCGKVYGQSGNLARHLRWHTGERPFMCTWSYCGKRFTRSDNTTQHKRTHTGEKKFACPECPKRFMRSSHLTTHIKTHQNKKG
outcome.measure: Kd

Asked: Query (binder): TGGAAGGAA (dsDNA) DNA 1: TGGAAGGAA DNA 2: TTCCTTCCA ; field requested: Kd
Given back: 90 pM

Where do these numbers come from? They come from patent US20030068675.
